# Target under test: Excitatory amino acid transporter 4 (Rattus norvegicus, UniProt O35921)
# Sequence (O35921 whole entry): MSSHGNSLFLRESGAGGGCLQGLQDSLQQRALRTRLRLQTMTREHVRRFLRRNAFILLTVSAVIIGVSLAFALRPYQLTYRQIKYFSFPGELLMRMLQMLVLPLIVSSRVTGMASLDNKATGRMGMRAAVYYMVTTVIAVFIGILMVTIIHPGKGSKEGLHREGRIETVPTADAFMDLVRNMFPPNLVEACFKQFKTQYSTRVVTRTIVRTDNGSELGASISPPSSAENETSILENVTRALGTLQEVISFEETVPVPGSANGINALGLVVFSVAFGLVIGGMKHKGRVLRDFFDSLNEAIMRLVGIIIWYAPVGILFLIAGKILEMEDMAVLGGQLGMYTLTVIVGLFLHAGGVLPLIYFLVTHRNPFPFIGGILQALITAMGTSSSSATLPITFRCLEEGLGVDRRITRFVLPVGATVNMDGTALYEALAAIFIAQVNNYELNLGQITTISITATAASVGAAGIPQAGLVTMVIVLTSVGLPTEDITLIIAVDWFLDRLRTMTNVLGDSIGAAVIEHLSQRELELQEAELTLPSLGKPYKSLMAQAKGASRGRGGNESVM
# Assay method text: Inhibition of rat EAAT4 expressed in tsA201 cells assessed as reduction in [3H]-D-Asp uptake incubated for 4 mins by scintillation counting method
# Format: cell-based
# Stated conditions: read-out: IC50
Observation type: IC50 (nM)

- Compound: "N[C@H](C(=O)O)[C@H](OCc1cccc(NC(=O)c2ccc(C(F)(F)F)cc2)c1)C(=O)O"
  Unit abbreviation: "nM"
  IC50: 40

I. N[C@H](C(=O)O)[C@H](OCc1cccs1)C(=O)O
II. N[C@H](C(=O)O)[C@H](OCc1ccco1)C(=O)O
III. N[C@@H](CCC(=O)O)C(=O)O
IV. N[C@H](C(=O)O)[C@H](OCc1ccccc1)C(=O)O (racemic)
Q: Ascending sort, IC50. Arrange the labels as the request states and list them.
Ans: IV, I, II, III
(IV: 2300 nM, I: 3300 nM, II: 7800 nM, III: 13000 nM)
